# reported normalized growth; entries follow
METHOD DESCRIPTION: chemical genetic growth profiling, strain panel (AID 1159580);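 also: tested at 20 µM; growth read once vehicle control cultures reached saturation at 30 °C; 1 = growth at the plate median or of vehicle wells; lower values mean less growth of the strain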
MEASUREMENT SETUP: S. cerevisiae deletion strains, growth OD, locus YIL125W, strain kgd1, stronger effect = lower value
In all, about 5,500 compounds went through this assay and about 2,000 (36%) were called active. Another 18% or so got no clear call; they are omitted. This is one part of the list. Where a SMILES comes first, the peptide text is derived from it.
MEASURED QUANTITY: normalized growth

MOLECULE	MEASURED QUANTITY	RESULT NUMBER
CNc1ccc(C(=O)CC(O)CCC(C)C2OC(=O)CC(O)CC(=O)CC(O)CC(O)CC(O)CC(O)CC3(O)CC(O)C(C(=O)OC)C(CC(OC4OC(C)C(O)C(N)C4O)/C=C/C=C/C=C/C=C/C=C/C=C/C=C/C2C)O3)cc1 (configuration not stated)	normalized growth	0.0582
CC(C)/C(O)=C1/C(=O)O[C@@H](c2ccoc2)[C@]2(C)C(O)[C@@H](O)[C@@]34OC5(C)OC67CC(C)(C(O)[C@]6(O)[C@@H](O)[C@]3(O5)C12)[C@H](CC(=O)O)[C@]74C (some centres not stated)	normalized growth	1
CC(=O)N[C@@H](CC(=O)O)C(=O)N[C@@H](CCC(=O)O)C(=O)O (Ac-Asp-Glu-OH)	normalized growth	0.982
CCN1C[C@@]2(COC)C3[C@@H](OC)[C@H]4[C@@H]1[C@]3(C(OC)C[C@H]2O)C1C[C@@]2(O)[C@H](OC(=O)c3ccccc3)C1[C@]4(OC(C)=O)[C@@H](O)[C@@H]2OC (some centres not stated)	normalized growth	1.03
Cc1oncc1C(=O)Nc1ccc(C(F)(F)F)cc1	normalized growth	0.99
COc1cc2c(cc1OC)C1(O)C(=O)c3ccc(O)c(C(=O)O)c3OC1CO2 (configuration not stated)	normalized growth	0.985
C[C@]12CCC3c4ccc(O)cc4CCC3C1CCC2=O (some centres not stated)	normalized growth	0.986
COc1ccc2c(c1)OCC(Cc1ccc(OC)c(O)c1)C2=O (configuration not stated)	normalized growth	0.969
C[C@]12CCC3c4ccc(OC(=O)CCC(=O)O)cc4CCC3C1CCC2=O (some centres not stated)	normalized growth	0.992
CC(C)=CC1C(C(=O)OCc2cccc(Oc3ccccc3)c2)C1(C)C (configuration not stated)	normalized growth	0.976
CC(C)(S)[C@@H](N)C(=O)O	normalized growth	0.997
NC(=O)NC1NC(=O)NC1=O (configuration not stated)	normalized growth	0.999
CCC(=O)OC1[C@@H]2CC3=C4CC(=O)O[C@@H](c5ccoc5)[C@]4(C)CCC3[C@@](C)(C2=O)[C@@H](CC(=O)OC)C1(C)C (some centres not stated)	normalized growth	1.01
CC(=O)Oc1ccc2c(c1)CCC1C2CC[C@]2(C)C(=O)CCC12 (some centres not stated)	normalized growth	1.01
Oc1c(Cl)cc(Cl)c(Cl)c1Cc1c(O)c(Cl)cc(Cl)c1Cl	normalized growth	0.0781
O=C(O)CCCCCCCC(=O)O	normalized growth	0.999
C[C@]12CCC3C(CC[C@H]4C[C@H](O)CC[C@]34C)C1CC[C@@H]2O (some centres not stated)	normalized growth	0.993
CC1CCC(NC(=O)N(CCCl)N=O)CC1 (configuration not stated)	normalized growth	0.929
O=C(O)COc1ccc(Cl)cc1Cl	normalized growth	1.03
Cc1nnc(NS(=O)(=O)c2ccc(N)cc2)s1	normalized growth	1.01
COc1ccc2c(c1)OCC(Cc1ccc(OC)c(OC)c1)C2=O (configuration not stated)	normalized growth	0.991
CC(=O)C1CC[C@H]2C3CC[C@H]4C[C@H](O)CC[C@]4(C)C3CC[C@]12C (some centres not stated)	normalized growth	1
Cc1cccc(C)c1NC(=O)C1CCCCN1C (configuration not stated)	normalized growth	1.01
C[C@]12CCC3c4ccc(OC(=O)c5ccccc5)cc4CCC3C1CCC2=O (some centres not stated)	normalized growth	1
NC(N)=NCCN1CCCCCCC1	normalized growth	1.02
CC(=O)C1CCC2C3CCC4C[C@H](O)CCC4(C)C3C[C@H](O)C12C (some centres not stated)	normalized growth	1.01
CC(=O)O[C@H]1C[C@@]2(C)[C@@H](C[C@@H](O)C3[C@]2(C)CC[C@H]2[C@H](C)[C@H](O)CC[C@]32C)/C1=C(/CCC=C(C)C)C(=O)O (some centres not stated)	normalized growth	1.03
CC(=O)N[C@@H](CCC(=O)O)C(=O)O	normalized growth	1
C[C@]12C=CC(=O)C=C1CCC1C2[C@@H](O)C[C@@]2(C)C1CC[C@]2(O)C(=O)CO (some centres not stated)	normalized growth	0.982
O=NN(CCCl)C(=O)NCCCl	normalized growth	0.926
COC1=CC(=O)OC(CCc2ccc(OC)c(OC)c2)C1 (configuration not stated)	normalized growth	1.02
CC(C)c1nc(N(C)S(C)(=O)=O)nc(-c2ccc(F)cc2)c1/C=C/[C@@H](O)C[C@@H](O)CC(=O)O	normalized growth	1.02
COc1cc(C)c2c(=O)cc(-c3ccccc3)oc2c1	normalized growth	0.964
Cc1cc(CC(=O)O)n(C)c1C(=O)c1ccc(Cl)cc1	normalized growth	1.01
O=c1oc2ccccc2cc1O	normalized growth	1
C=C[C@@]1(C)CC(=O)[C@@]2(O)[C@](C)(O1)[C@@H](OC(C)=O)[C@@H](O)C1C(C)(C)CC[C@H](O)[C@@]12C (some centres not stated)	normalized growth	0.983
NCCCCCC(=O)O	normalized growth	1.01
CCCn1c(=O)c2[nH]c(C3CCCC3)nc2n(CCC)c1=O	normalized growth	0.985
COc1ccc2c(=O)c(OC)c(-c3ccccc3)oc2c1	normalized growth	0.975
NC(C(=O)O)C(O)C(=O)O (configuration not stated)	normalized growth	1.01
c1ccc2c(CC3=NCCN3)cccc2c1	normalized growth	1.01
NCCCCC(=O)O	normalized growth	0.994
